B1: CPEB3 Ribozyme (parent)
chain: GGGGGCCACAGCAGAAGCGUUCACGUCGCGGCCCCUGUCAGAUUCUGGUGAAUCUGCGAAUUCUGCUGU

- Variants of: B1
- protocol: self-cleavage, relative activity (ratio to wild type); higher = more cleavage; co-transcriptional
Please mark satisfied if the recorded self-cleavage is equal to or greater than 0.6, and not satisfied if it falls below.

Asked: Form field: self-cleavage at least 0.6? Entry: C6U A42G
Given back: satisfied

Asked: Record G4C A13C ; criterion: self-cleavage no lower than 0.6. Met?
Given back: not satisfied

Asked: Could you tell me if the measured self-cleavage of C32G A42C reaches 0.6 or more?
Given back: not satisfied

Asked: State whether the measured self-cleavage reaches 0.6, counting equality as reaching it, for A23G G56A
Given back: satisfied

Asked: Confirm if self-cleavage reported for the variant C39G C57G is 0.6 or above.
Given back: not satisfied

Asked: Decide: is the reported value of self-cleavage for G50U equal to or greater than 0.6?
Given back: satisfied

Asked: Decide: self-cleavage of A52U C54U >= 0.6?
Given back: satisfied

Asked: Evaluate G17C G48A : self-cleavage at minimum 0.6?
Given back: not satisfied

Asked: Entry C6G C29A : is its self-cleavage no less than 0.6?
Given back: not satisfied

Asked: Does the reported self-cleavage for C18U G30A fall at or above the 0.6 mark?
Given back: not satisfied

Asked: Hello, I need to know if U38A C54A has measured self-cleavage not below 0.6. Thanks!
Given back: satisfied

Asked: Hello, I need to know if A8G U64G has measured self-cleavage not below 0.6. Thanks!
Given back: not satisfied

Asked: Item C7G A23G with self-cleavage of 0.6 or above?
Given back: not satisfied

Asked: Would you say U20G U44A shows self-cleavage at minimum 0.6?
Given back: not satisfied

Asked: Check if self-cleavage >= 0.6 (inclusive). Item: U38G G68C
Given back: not satisfied

Asked: Check the entry C32U G56C : does self-cleavage equal or exceed 0.6?
Given back: satisfied

Asked: Tell me whether self-cleavage is at least 0.6 here: U26A A40U
Given back: not satisfied

Asked: Given G14C G47C , state whether its self-cleavage is at least 0.6.
Given back: satisfied

Asked: Does self-cleavage meet or surpass 0.6 for A10U U69C ?
Given back: satisfied

Asked: Decide: is the reported value of self-cleavage for A15G U64A equal to or greater than 0.6?
Given back: satisfied

Asked: Dear colleague, could you confirm whether U21G A60C has self-cleavage at or above 0.6?
Given back: not satisfied

Asked: Determine whether this variant has self-cleavage no lower than 0.6: C27U A59U
Given back: not satisfied

Asked: Assess whether reported self-cleavage for A10G C35G sits at 0.6 or higher.
Given back: not satisfied

Asked: Threshold query (self-cleavage >= 0.6) on A10G A42C
Given back: satisfied

Asked: State whether the measured self-cleavage reaches 0.6, counting equality as reaching it, for U53C U61C
Given back: not satisfied

Asked: Can A40G C54G be said to have self-cleavage at or above 0.6?
Given back: satisfied

Asked: API: above_or_equal(metric=self-cleavage, cutoff=0.6) for item A10C C45G
Given back: satisfied

Asked: Check this variant for self-cleavage at or above 0.6: G30A C63U
Given back: satisfied

Asked: # check: self-cleavage of C12A C66U is greater than or equal to 0.6
Given back: satisfied

Asked: Is it the case that U26A A59C has self-cleavage reaching or exceeding 0.6?
Given back: not satisfied

Asked: # bool: self-cleavage of C45G G56U >= 0.6
Given back: satisfied

Asked: // inclusive: self-cleavage at least 0.6? input: G5U C45G
Given back: not satisfied

Asked: Threshold query (self-cleavage >= 0.6) on G4U U44A
Given back: not satisfied

Asked: State whether the measured self-cleavage reaches 0.6, counting equality as reaching it, for C7U G14C
Given back: not satisfied

These measurements were taken from the RNAGym collection of RNA variant scans (doi:10.7554/elife.80360).
